Data credit: patent US20180185504A1

Target: T1, human prolactin receptor (PRLR) (human, UniProt P16471 25-622)
T1 sequence: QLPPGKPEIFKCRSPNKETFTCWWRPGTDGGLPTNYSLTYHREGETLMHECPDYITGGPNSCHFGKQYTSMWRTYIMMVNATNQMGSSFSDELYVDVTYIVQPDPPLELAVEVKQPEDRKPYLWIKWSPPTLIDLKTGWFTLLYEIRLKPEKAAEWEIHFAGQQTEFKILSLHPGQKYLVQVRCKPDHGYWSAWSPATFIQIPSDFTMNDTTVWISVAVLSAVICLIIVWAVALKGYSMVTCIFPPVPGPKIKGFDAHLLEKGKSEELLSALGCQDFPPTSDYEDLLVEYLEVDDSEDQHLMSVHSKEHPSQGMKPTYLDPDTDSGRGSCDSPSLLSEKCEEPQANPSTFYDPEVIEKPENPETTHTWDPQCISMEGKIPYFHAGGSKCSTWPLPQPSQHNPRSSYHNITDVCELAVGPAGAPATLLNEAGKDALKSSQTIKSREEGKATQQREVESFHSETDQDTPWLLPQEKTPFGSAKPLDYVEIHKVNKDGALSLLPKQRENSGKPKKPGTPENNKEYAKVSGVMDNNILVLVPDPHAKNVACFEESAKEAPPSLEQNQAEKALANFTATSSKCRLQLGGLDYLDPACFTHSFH
Assay: cell-based or functional assay

{"Binder": "H1H6953N-mc-VC-PAB-MMAE (antibody, human IgG1, V domains shown, MMAE conjugated through cleavable mc-vc-PAB linker; attachment residues not stated) VH: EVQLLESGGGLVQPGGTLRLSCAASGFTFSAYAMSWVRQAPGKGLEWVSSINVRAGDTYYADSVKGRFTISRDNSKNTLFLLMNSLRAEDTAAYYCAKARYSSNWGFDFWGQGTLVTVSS VL: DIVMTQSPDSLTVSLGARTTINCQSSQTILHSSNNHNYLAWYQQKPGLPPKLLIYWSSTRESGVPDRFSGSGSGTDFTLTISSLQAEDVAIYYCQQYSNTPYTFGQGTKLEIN", "Value unit": "nM", "IC50, cell viability, MCF7/PRLR cells": 0.1}
{"Binder": "H1H6953N-mc-VC-PAB-MMD (antibody, human IgG1, V domains shown, MMD conjugated through mc-VC-PAB linker; attachment residues not stated) VH: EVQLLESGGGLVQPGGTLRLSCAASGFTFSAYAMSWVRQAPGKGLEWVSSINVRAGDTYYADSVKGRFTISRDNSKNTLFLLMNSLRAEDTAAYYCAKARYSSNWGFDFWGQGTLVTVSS VL: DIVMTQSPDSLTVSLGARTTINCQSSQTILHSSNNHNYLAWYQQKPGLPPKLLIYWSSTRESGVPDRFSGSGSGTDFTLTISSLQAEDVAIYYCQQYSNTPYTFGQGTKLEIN", "Value unit": "nM", "IC50, cell viability, MCF7/PRLR cells": 0.2}
{"Binder": "H1H6953N-mc-VC-PAB-MeNHC3-May (antibody, human IgG1, V domains shown, MeNHC3-May conjugated through mc-VC-PAB linker; attachment residues not stated) VH: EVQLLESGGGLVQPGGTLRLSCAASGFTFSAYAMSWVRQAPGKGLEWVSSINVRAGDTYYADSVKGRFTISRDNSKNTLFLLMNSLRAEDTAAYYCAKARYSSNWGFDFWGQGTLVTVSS VL: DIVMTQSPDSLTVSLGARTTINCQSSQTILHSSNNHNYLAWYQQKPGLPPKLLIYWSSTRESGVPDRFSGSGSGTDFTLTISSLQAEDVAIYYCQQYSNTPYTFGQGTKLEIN", "Value unit": "nM", "IC50, cell viability, MCF7/PRLR cells": 0.2}
